Source listed as ChEMBL document CHEMBL3853265.

Attribute: fraction unbound
Assay: Fraction unbound in rat plasma
Assay type: ADME, cell-free
Please give the numeric answer without any surrounding text.

> print(dat)
                                test.smiles  quantitative.result
1  O=S(=O)(Nc1ccc(C(F)(F)F)nc1)c1ccccc1C(F)(F)F               0.0045

Moving on to another compound below.
Task item: Requested field: fraction unbound. Item: O=S(=O)(Nc1cncc(C(F)(F)F)c1)c1ccccc1C(F)(F)F
Reply: 0.0017

====

Assay: Oral bioavailability in dog at 3 mg/kg
Assay type: ADME, organism-based, Canis lupus familiaris
Conditions: in vivo
Measured Property: bioavailability

Task item: Requested field: bioavailability. Item: O=S(=O)(Nc1cncc(C(F)(F)F)c1)c1ccccc1C(F)(F)F
Reply: 145%

====

Test: Oral bioavailability in dog at 0.737 mg/kg
Format: ADME, organism-based, Canis lupus familiaris
Conditions: in vivo
Measured Property: bioavailability (%)
Entry rule: numbers only, all in %.

Task item: Requested field: bioavailability. Item: O=S(=O)(Nc1ccc(C(F)(F)F)nc1)c1ccccc1C(F)(F)F
Reply: 104

====

Biological target: Solute carrier family 22 member 6 (Homo sapiens)
Sequence (Q4U2R8 whole entry): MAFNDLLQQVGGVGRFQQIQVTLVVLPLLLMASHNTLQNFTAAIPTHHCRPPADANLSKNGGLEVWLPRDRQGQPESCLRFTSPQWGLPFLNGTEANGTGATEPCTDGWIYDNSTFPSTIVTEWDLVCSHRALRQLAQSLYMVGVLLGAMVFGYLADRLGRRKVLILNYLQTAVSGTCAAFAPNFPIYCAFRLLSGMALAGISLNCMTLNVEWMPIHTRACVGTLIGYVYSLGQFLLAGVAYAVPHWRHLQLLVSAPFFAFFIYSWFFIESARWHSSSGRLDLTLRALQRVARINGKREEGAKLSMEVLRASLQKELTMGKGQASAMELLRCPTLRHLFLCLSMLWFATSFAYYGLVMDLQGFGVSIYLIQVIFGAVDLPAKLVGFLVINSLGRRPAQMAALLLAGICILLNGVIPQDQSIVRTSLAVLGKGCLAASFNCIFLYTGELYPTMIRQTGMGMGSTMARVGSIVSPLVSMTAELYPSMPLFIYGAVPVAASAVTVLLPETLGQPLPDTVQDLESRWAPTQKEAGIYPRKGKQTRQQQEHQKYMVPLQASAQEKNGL
Measured Property: pIC50
Please treat pIC50 as minus the base-10 logarithm of the molar concentration.

> print(dat)
                                test.smiles  quantitative.result
1  O=S(=O)(Nc1ccc(C(F)(F)F)nc1)c1ccccc1C(F)(F)F                 4.91

Moving on to another compound below.
Task item: Requested field: pIC50. Item: O=S(=O)(Nc1cncc(C(F)(F)F)c1)c1ccccc1C(F)(F)F
Reply: 5.03

====

Biological target: Solute carrier family 22 member 12 (Homo sapiens, UniProt Q96S37)
Sequence (Q96S37 whole entry): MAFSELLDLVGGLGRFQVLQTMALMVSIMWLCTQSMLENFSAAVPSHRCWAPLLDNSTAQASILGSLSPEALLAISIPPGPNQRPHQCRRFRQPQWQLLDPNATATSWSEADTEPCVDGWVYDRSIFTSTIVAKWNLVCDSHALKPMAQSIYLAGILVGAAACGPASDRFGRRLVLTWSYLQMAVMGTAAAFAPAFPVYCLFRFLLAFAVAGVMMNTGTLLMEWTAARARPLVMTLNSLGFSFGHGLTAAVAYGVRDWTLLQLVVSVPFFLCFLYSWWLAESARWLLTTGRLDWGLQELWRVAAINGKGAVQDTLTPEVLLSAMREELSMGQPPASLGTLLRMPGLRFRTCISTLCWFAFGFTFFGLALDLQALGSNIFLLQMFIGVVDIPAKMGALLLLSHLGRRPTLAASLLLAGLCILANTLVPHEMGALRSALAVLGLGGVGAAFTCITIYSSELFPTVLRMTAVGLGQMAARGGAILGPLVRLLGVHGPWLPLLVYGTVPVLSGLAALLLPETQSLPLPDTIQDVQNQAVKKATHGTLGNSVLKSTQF
Test: Inhibition of human C-terminal eGFP-tagged URAT1 long isoform expressed in CHO cells assessed as decrease in [14C]-uric acid uptake preincubated for 15 mins followed by [14C]-uric acid addition and incubated in dark for 3 hrs by scintillation counting method
Attribute: IC50

Task item: Requested field: IC50. Item: N#Cc1ccc(NS(=O)(=O)c2ccccc2C#N)cc1Cl
Reply: 156 nM

Task item: Requested field: IC50. Item: N#Cc1cc(NS(=O)(=O)c2ccccc2C#N)ccc1Cl
Reply: 127 nM

Task item: Requested field: IC50. Item: COc1ccc(NS(=O)(=O)c2ccccc2C(F)(F)F)cn1
Reply: 1170 nM

Task item: Requested field: IC50. Item: N#Cc1cc(NS(=O)(=O)c2ccccc2Cl)ccc1Cl
Reply: 81 nM

Task item: Requested field: IC50. Item: O=S(=O)(Nc1ccc(F)c(F)c1)c1ccccc1C(F)(F)F
Reply: 1970 nM

Task item: Requested field: IC50. Item: N#Cc1cc(Cl)ccc1NS(=O)(=O)c1ccccc1C(F)(F)F
Reply: 111 nM

====

Assay: Intrinsic clearance in human hepatocytes assessed per 10^6 cells
Format: ADME, cell-based, Hepatocyte
Measured Property: CLH (µL/min/1e6 cells)
Entry rule: numbers only, all in µL/min/1e6 cells.

Task item: Requested field: CLH. Item: O=S(=O)(Nc1cncc(C(F)(F)F)c1)c1ccccc1C(F)(F)F
Reply: 6

====

Target: CYP2C9 (Homo sapiens)
Sequence (P11712 whole entry): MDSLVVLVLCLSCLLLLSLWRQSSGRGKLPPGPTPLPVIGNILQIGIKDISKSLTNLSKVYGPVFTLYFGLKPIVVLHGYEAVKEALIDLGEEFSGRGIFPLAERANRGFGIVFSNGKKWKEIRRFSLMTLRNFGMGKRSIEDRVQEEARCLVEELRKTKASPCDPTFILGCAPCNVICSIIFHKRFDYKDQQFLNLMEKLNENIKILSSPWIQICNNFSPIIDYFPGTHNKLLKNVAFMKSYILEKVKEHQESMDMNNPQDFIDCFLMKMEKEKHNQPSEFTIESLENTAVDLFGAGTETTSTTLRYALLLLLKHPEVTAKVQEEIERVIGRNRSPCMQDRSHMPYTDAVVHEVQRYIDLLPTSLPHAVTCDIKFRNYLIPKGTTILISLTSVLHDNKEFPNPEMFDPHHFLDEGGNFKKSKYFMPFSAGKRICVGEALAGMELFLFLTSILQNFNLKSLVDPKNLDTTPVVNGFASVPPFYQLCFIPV
Test: Inhibition of CYP2C9 (unknown origin) at 3 uM relative to control
Format: ADME
Entry flag: true if inhibition at 3 µM reaches 40%; false if it does not.

Some solved cases for reference:
> print(dat)
                                test.smiles  group
1  N#Cc1cc(NS(=O)(=O)c2ccccc2C(F)(F)F)ccc1C(F)(F)F   true
2  N#Cc1ccc(NS(=O)(=O)c2ccccc2C(F)(F)F)cc1C(F)(F)F   true
3  O=S(=O)(Nc1ccc(C(F)(F)F)nc1)c1ccccc1C(F)(F)F  false

Task item: Exam item: decide whether the reported inhibition at 3 µM for COc1cncc(NS(=O)(=O)c2ccccc2C(F)(F)F)c1 is at least 40%.
Reply: false

Task item: Exam item: decide whether the reported inhibition at 3 µM for N#Cc1c(Cl)cccc1NS(=O)(=O)c1ccccc1C(F)(F)F is at least 40%.
Reply: true

Task item: Exam item: decide whether the reported inhibition at 3 µM for O=S(=O)(Nc1ccccc1F)c1ccccc1C(F)(F)F is at least 40%.
Reply: false

====

Assay: Volume of distribution at steady state in dog at 1 mg/kg, iv and 3 mg/kg, po
Assay type: ADME, organism-based, Canis lupus familiaris
Settings: in vivo, read-out: Vdss
Measured Property: Vd (L/kg)
Entry rule: numbers only, all in L/kg.

Task item: Requested field: Vd. Item: O=S(=O)(Nc1cncc(C(F)(F)F)c1)c1ccccc1C(F)(F)F
Reply: 0.18

====

Assay: Permeability in RRCK cells
Format: ADME, cell-based, Canis lupus familiaris, MDCKII-LE
Conditions: dog, MDCK; read-out: permeability
Measured Property: Papp (×10⁻⁶ cm/s)
Entry rule: numbers only, all in ×10⁻⁶ cm/s.

> print(dat)
                                test.smiles  measured.property  quantitative.result
1  O=S(=O)(Nc1cncc(C(F)(F)F)c1)c1ccccc1C(F)(F)F               Papp                   21

Task item: Requested field: Papp. Item: O=S(=O)(Nc1ccc(C(F)(F)F)nc1)c1ccccc1C(F)(F)F
Reply: 27

====

Biological target: Cytochrome P450 1A2 (Homo sapiens, UniProt P05177)
Sequence (P05177 whole entry): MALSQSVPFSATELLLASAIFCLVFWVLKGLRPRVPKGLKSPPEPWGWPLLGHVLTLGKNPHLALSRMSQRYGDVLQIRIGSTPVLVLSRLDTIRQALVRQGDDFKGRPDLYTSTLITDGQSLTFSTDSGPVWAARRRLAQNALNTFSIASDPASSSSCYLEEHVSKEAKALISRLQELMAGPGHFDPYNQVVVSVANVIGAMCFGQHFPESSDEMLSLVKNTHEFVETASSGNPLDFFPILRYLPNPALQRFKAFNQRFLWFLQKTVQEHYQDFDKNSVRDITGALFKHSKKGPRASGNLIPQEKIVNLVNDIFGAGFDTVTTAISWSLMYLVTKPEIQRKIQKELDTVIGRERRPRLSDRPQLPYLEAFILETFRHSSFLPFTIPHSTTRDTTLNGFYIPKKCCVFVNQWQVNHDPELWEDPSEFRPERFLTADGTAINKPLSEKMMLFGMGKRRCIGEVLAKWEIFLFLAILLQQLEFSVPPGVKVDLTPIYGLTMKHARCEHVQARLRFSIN
Measured Property: IC50

Task item: Reported IC50 for Cytochrome P450 1A2 (Homo sapiens, UniProt P05177), given O=S(=O)(Nc1ccc(C(F)(F)F)nc1)c1ccccc1C(F)(F)F ?
Reply: > 30 µM
